# Measurement Description: Cytotoxicity by neutral red dye uptake in 2.2.15 cells
# Format: cell-based
# Run Parameters: human, 2.2.15 cells (confluent cultures, HBV-replicating)
Assay Endpoint: IC50 at 9 days

The compound listed as "Nc1ncnc2c1c(I)cn2[C@@H]1C=C(CO)[C@@H](O)[C@H]1O" shows IC50 at 9 days equal to > 300 µM

Lookup result for "C=Cc1cn([C@@H]2C=C(CO)[C@@H](O)[C@H]2O)c2ncnc(N)c12" ; measured IC50 at 9 days: > 300 µM

Reported IC50 at 9 days of Nc1ccn([C@@H]2CS[C@H](CO)O2)c(=O)n1 [Compound 3TC, lamivudine, reference compound] : > 2000 µM

Summary for this compound, "C#Cc1cn([C@@H]2C=C(CO)[C@@H](O)[C@H]2O)c2ncnc(N)c12" : IC50 at 9 days is > 300 µM
